tested on: NCI-H226; assay: NCI tumour cell line growth inhibition, 48 h
Calls of active or inactive are those of the source. Cut-off read from the data, not from the text of the source: active = GI50 up to about 1.1 µM and inactive = higher.
readout: GI50

O=C(CC(=O)Nc1cccc(Cl)c1)NNCC(=O)Nc1nnc(-c2ccccc2)s1	22.9 µM (inactive)
COc1ccc(O)cc1C(O)c1ccccc1 (stereo not drawn)	> 100 µM (inactive)
COc1ccc(CNC(C)C(=O)O)cc1 (stereo not drawn)	> 100 µM (inactive)
O=C(Nc1noc(-c2ccccc2)n1)c1ccccc1CNc1noc(-c2ccccc2)n1	> 100 µM (inactive)
CC(C)CN1CN(c2ccccc2)C2(CCN(CC(C)(c3ccc(F)cc3)C3OCCO3)CC2)C1=O (stereo not drawn)	11.1 µM (inactive)
COC1=C(OC)C(=O)C(Sc2ccc3ccccc3c2)=CC1=O	6.03 µM (inactive)

Dear colleague, I am looking for the recorded GI50 of the following molecule: CCSc1n/c(=C\c2ccco2)c2nnnn12
> 100 µM (inactive)

Please answer likewise for COc1cc(C2c3[nH]c4ccc(F)cc4c3C[C@H]3COC(=O)N23)cc(OC)c1O (stereo partly drawn)
10.4 µM (inactive)

Please answer likewise for COc1ccc2c(c1OC)C(=O)O[C@@H]2[C@H]1c2cc3c(cc2CCN1C)OCO3
> 100 µM (inactive)

Please answer likewise for O=C(CCc1ccc(O)c(O)c1)NCCc1cc(O)cc(OCc2ccccc2)c1
58.7 µM (inactive)

Please answer likewise for O=C1Nc2ccccc2N/C1=C\C(=O)c1ccccc1O
> 100 µM (inactive)

Please answer likewise for CCCCCCNC(=O)CCN(C(=O)O)S(=O)(=O)c1ccc(NC(=O)c2ccccc2)cc1
> 100 µM (inactive)

Please answer likewise for O=C1c2ccccc2C(=O)N1n1c(Cc2ccccc2)n[nH]c1=O
> 100 µM (inactive)

Please answer likewise for CCOC(=O)c1cc(=O)c2ccnc3c2n1CCS3
> 100 µM (inactive)

Please answer likewise for N#C/C(=C\c1cc(Br)c(O)c(Br)c1)c1cccnc1
21.5 µM (inactive)

Please answer likewise for CC(C)(C)n1nc(C2CC2)cc1NC(=O)Nc1ccc(Cl)cc1
> 100 µM (inactive)

Please answer likewise for COc1c2c(cc3c1OCO3)C13C=CC(OC)CC1N(CC3)C2.[O-][Cl+3]([O-])([O-])O (stereo not drawn)
> 100 µM (inactive)

Please answer likewise for CCOC(=O)C(NC(=O)c1ccccc1)(Nc1ccc(S(=O)(=O)Nc2cc(C)on2)cc1)C(F)(F)F (stereo not drawn)
> 100 µM (inactive)

Please answer likewise for CC(C)(C)c1cc(Oc2ccc(C#N)c(C#N)c2)cc(C(C)(C)C)c1
> 100 µM (inactive)

Please answer likewise for CC(C)CC1c2[nH]c3ccccc3c2C[C@H]2C(=O)NC(Cc3c[nH]c4ccccc34)C(=O)N12 (stereo partly drawn)
26.9 µM (inactive)

Please answer likewise for C[C@]12CCC(=O)C=C1CC[C@@H]1[C@@H]2CC[C@]2(C)C(=O)NC(=O)C[C@@H]12
> 100 µM (inactive)

Please answer likewise for Cc1c(-c2ccccc2)c(-c2ccc(OCCN(C)C)cc2)n2ccccc12
15.2 µM (inactive)

Please answer likewise for CCC/C(C)=N/NC(=S)SC.CCC/C(C)=N/NC(=S)SC.[Zn+2]
12.6 µM (inactive)

Please answer likewise for CN(C)/C=C(\C(=O)c1ccccc1)n1nc(-c2ccccc2)cc1-c1ccccc1
> 10 µM (inactive)

Please answer likewise for O=C1Nc2ccccc2/C1=N/NC(=O)C(O)(c1ccccc1)c1ccccc1
20.6 µM (inactive)

Please answer likewise for COC(=O)c1cc(/C=C2\Cc3cc4c(cc3C2=O)CCC4)cc2c1CCC2
> 100 µM (inactive)

Please answer likewise for O=C1c2ccccc2S(=O)(=O)c2cc(-c3nn[nH]n3)ccc21 [DOXANTRAZOLE]
> 100 µM (inactive)

Please answer likewise for Brc1cccc(/C=N/C23CC4CC(CC(C4)C2)C3)c1
> 100 µM (inactive)

Just for reference, ChEMBL document CHEMBL1201862 is where these values come from.
